Exercise: for every item that follows, state its recorded unfolding free energy.
B1: Ribonuclease HI, P0A7Y4 (parent)
chain: MLKQVEIFTDGSCLGNPGPGGYGAILRYRGREKTFSAGYTRTTNNRMELMAAIVALEALKEHCEVILSTDSQYVRQGITQWIHNWKKRGWKTADKKPVKNVDLWQRLDAALGQHQIKWEWVKGHAGHPENERCDELARAAAMNPTLEDTGYQVEV

- Variants of: B1
- condition_set: Escherichia coli (strain K12); pH 5.5; 25 °C; GdnHCl; CD; Sodium acetate 20 mM; reversible: yes; structure 2RN2; whole UniProt chain shown
Give bare numbers, in kcal/mol.

Study these solved cases before continuing.
H83A :: 9.43
H127A :: 8.97
H124A :: 9.38

# ---- query variant ----
Query string: Which value of unfolding free energy has been reported for `H62A` in the records?
Result string: 9.57
